# procedure details: Pharmacokinetics determination
# Type: in vivo
# measurement parameters: female, ICR, mouse, plasma, other: range over s.c., i.v., i.p. and p.o., 30 mg/kg; mice, all the administration routes; read-out: T max (range)
measured property: Tmax

Fill in Tmax for record "Cc1nc2c(-c3ccc(Cl)cc3)cnn2c(O)c1Cc1ccccc1"
4.8 to 19.8 min

---

# procedure details: Pharmacokinetics determination
# Type: in vivo
# Design: dose or concentration left out as unconfirmed
# measurement parameters: female, ICR, mouse, plasma, iv; mice
measured property: clearance (mL/min/kg)
Give the number; mL/min/kg is assumed, so skip it.

Fill in clearance for record "Cc1nc2c(-c3ccc(Cl)cc3)cnn2c(O)c1Cc1ccccc1"
7.48

---

measured property: Kd (µM)
Give the number; µM is assumed, so skip it.

Retrieve Kd on UniProt:Q2G0R0; query "Cc1nc2c(-c3ccc(Cl)cc3)cnn2c(O)c1Cc1ccccc1"
Sequence (Q2G0R0 entry or part of it): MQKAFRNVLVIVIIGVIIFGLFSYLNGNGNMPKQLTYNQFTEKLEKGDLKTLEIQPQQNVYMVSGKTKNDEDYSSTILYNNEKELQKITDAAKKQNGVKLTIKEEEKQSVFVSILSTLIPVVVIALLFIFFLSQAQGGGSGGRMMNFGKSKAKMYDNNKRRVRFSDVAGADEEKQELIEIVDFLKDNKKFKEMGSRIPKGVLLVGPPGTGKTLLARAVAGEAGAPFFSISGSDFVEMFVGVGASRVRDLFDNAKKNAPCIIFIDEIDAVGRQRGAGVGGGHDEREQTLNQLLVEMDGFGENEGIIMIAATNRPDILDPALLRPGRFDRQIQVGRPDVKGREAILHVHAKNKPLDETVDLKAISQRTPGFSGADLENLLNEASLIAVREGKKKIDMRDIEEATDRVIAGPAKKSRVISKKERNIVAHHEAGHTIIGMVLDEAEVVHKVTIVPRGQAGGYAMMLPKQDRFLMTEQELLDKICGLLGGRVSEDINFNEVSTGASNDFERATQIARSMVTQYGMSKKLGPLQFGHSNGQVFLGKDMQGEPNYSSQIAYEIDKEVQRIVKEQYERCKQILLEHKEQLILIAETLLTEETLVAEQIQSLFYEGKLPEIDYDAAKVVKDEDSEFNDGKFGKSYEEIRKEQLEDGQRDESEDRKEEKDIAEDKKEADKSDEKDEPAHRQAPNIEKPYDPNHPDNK
31

---

# procedure details: Pharmacokinetics determination
# Format: in vivo
# Design: dose or concentration left out as unconfirmed
# measurement parameters: female, ICR, mouse, plasma, ip; mice, i.p.; read-out: MRT(0-t)
measured property: MRT last (h)
Give the number; h is assumed, so skip it.

Fill in MRT last for record "Cc1nc2c(-c3ccc(Cl)cc3)cnn2c(O)c1Cc1ccccc1"
1.02

---

# procedure details: Pharmacokinetics determination
# Type: in vivo
# Parameters: dose or concentration left out as unconfirmed
# measurement parameters: female, ICR, mouse, plasma, iv; mice, i.v.; read-out: MRT(0-t)
measured property: MRT last (min)
Give the number; min is assumed, so skip it.

Fill in MRT last for record "Cc1nc2c(-c3ccc(Cl)cc3)cnn2c(O)c1Cc1ccccc1"
40.2

---

# tested target: hERG (Homo sapiens, UniProt Q12809)
# Construct: expressed in transfected cells; host or cells: HEK293
# Sequence (Q12809 whole entry): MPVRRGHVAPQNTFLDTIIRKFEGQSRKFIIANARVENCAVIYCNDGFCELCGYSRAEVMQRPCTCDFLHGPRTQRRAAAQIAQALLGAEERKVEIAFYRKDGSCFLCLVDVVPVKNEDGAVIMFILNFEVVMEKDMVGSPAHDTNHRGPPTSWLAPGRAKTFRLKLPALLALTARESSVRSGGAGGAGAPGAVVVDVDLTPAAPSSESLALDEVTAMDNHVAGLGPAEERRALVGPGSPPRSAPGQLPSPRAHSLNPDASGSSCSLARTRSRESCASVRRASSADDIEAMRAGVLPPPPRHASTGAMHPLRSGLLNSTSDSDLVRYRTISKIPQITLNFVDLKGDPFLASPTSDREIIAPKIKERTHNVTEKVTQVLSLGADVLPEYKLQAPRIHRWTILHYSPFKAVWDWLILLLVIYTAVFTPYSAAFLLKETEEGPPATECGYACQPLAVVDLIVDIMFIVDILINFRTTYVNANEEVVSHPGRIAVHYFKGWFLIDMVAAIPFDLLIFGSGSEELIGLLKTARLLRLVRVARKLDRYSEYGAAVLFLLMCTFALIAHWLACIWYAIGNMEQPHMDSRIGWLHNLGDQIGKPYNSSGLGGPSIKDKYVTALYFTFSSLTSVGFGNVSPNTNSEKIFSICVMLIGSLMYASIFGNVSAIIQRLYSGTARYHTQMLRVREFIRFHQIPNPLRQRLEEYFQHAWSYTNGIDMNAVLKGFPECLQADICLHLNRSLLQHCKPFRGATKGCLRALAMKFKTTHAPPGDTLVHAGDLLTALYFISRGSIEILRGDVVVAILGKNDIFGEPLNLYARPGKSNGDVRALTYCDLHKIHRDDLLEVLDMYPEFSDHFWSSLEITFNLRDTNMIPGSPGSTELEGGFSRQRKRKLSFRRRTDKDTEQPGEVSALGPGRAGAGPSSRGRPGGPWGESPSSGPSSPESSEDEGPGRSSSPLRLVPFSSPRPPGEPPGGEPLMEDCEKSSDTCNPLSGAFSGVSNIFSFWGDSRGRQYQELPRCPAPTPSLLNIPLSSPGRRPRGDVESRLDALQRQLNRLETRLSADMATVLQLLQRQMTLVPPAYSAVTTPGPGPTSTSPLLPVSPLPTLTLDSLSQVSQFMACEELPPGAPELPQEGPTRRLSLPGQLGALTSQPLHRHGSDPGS
# procedure details: hERG patch clamp
# Format: cell-based
# measurement parameters: HEK293 cells expressing hERG channels, pH 7.4, hERG potassium channels
pIC50: −log10 of the molar value.
measured property: pIC50

Fill in pIC50 for record "Cc1nc2c(-c3ccc(Cl)cc3)cnn2c(O)c1Cc1ccccc1"
< 4.52

---

# procedure details: Pharmacokinetics determination
# Type: in vivo
# measurement parameters: female, ICR, mouse, plasma, sc; mice
measured property: Cmax (ng/mL)
Give the number; ng/mL is assumed, so skip it.

Fill in Cmax for record "Cc1nc2c(-c3ccc(Cl)cc3)cnn2c(O)c1Cc1ccccc1"
11600

---

# procedure details: Pharmacokinetics determination
# Type: in vivo
# measurement parameters: female, ICR, mouse, plasma, iv; mice
measured property: Cmax (ng/mL)
Give the number; ng/mL is assumed, so skip it.

Fill in Cmax for record Cc1nc2c(-c3ccc(Cl)cc3)cnn2c(O)c1Cc1ccccc1 [STK848198]
40100

---

# procedure details: Pharmacokinetics determination
# Format: in vivo
# Set-up: dose or concentration left out as unconfirmed
# measurement parameters: female, ICR, mouse, plasma, po; mice
measured property: bioavailability (%)
Give the number; % is assumed, so skip it.

Fill in bioavailability for record "Cc1nc2c(-c3ccc(Cl)cc3)cnn2c(O)c1Cc1ccccc1"
40.4

Cited source: paper PMC11707430
